Each recorded value in this set is attributed to patent US20240018146A1.

Test system: HeLa MKYP cells
protocol_details: Human mitophagy assay (HeLa mKeima assay, FACS)
Format: cell-based
measurement_setup: Homo sapiens, HeLa, HeLa mKeima assay; read-out: Mitophagy EC50 (HeLa mKeima assay)
As shown below, each of these molecules has a reported pEC50 value.
For clarity, pEC50 is expressed as the negative log10 of concentration in mol/L.

# example entries with known answers
FC(F)(F)c1cc2c(N[C@H]3c4ccccc4CC[C@@H]3N3C[C@H]4COC[C@H]4C3)ncnc2[nH]1: 6.96
O=C1COCCN1[C@H]1CCc2ccccc2[C@@H]1Nc1ncnc2[nH]c(C(F)(F)F)cc12 (single isomer, unassigned): 5.56
FC(F)(F)c1cc2c(N[C@H]3c4ccccc4OC[C@@H]3N3CCOCC3)ncnc2[nH]1: 5.75

*Q* Send back HeLa MKYP cells pEC50 of Fc1ccc2c(c1)CC[C@H](N1CCOCC1)[C@H]2Nc1ncnc2[nH]c(C(F)(F)F)cc12 (single isomer, unassigned) only.
*A* 6.42

---

Tested on: HeLa MKYP cells
protocol_details: Human mitophagy assay (HeLa mKeima assay, FACS)
Format: cell-based
measurement_setup: Homo sapiens, HeLa; read-out: Mitophagy induction EC50
Description: Briefly, HeLa MKYP cells were plated at 10,000 cells/well in 96 well plates along with compounds at various concentrations. Following 16 hrs of incubation, cells were treated with 1 uM FCCP/oligomycin for 6 hours, then analyzed via FACS for the presence of mitochondria in lysosomes (as determined by an emissions spectrum shift from the pH-sensitive mtKeima tag). […]
As shown below, each of these molecules has a reported log10 EC50 value.
log10 EC50, nM

# example entries with known answers
Fc1ccc2c(c1)CC[C@H](N1C[C@H]3COC[C@H]3C1)[C@H]2Nc1ncnc2[nH]c(C3CC3)cc12 [EP-0040601]: 2.28
COC1CN([C@@H]2COc3ccccc3[C@H]2Nc2ncnc3[nH]c(C4CC4)cc23)C1 [EP-0040848]: 2.20
Cc1ccc2c(c1)OC[C@H](N1CCOCC1)[C@H]2Nc1ncnc2[nH]c(C(F)(F)F)cc12 (racemic) [EP-0041045]: 3.19
c1ccc2c(c1)CC[C@@H](N1C[C@H]3COC[C@H]3C1)[C@@H]2Nc1ncnc2[nH]c(C3CC3)cc12 (single isomer, unassigned) [EP-0040249]: 1.95

*Q* State its log10 EC50: C[C@@H]1CN([C@@H]2CCc3ccccc3[C@H]2Nc2ncnc3[nH]c(C4CC4)cc23)CCO1 (single isomer, unassigned) [EP-0040497]
*A* 3.84

---

Test system: HeLa MKYP cells
protocol_details: Cell death measured by DAPI staining, with 1 μM FCCP/oligomycin or no toxin (no FO)
Format: cell-based
measurement_setup: no FO; safe means DAPI+ <20%
metric_name: Highest safe dose (cytotoxicity; no FO; safe means DAPI+ <20%)

# example entries with known answers
c1ccc2c(c1)CC[C@@H](C1CCOCC1)[C@H]2Nc1ncnc2[nH]c(C3CC3)cc12: 25.0 µM
C[C@@H]1CN([C@@H]2COc3cc(F)ccc3[C@H]2Nc2ncnc3[nH]c(C4CC4)cc23)C[C@H](C)O1: 25.0 µM
FC(F)(F)c1cc2c(N[C@H]3c4ccccc4CC[C@@H]3N3CCCOCC3)ncnc2[nH]1: 25.0 µM
FC(F)(F)c1cc2c(N[C@H]3c4ccccc4CC[C@@H]3N3CCCCC3)ncnc2[nH]1 (single isomer, unassigned): 25.0 µM
[2H]C([2H])([2H])OC1CN([C@@H]2COc3ccccc3[C@H]2Nc2ncnc3[nH]c(C(F)(F)F)cc23)C1 (racemic): 25.0 µM
C[C@@H]1COCCN1[C@H]1CCc2ccccc2[C@@H]1Nc1ncnc2[nH]c(C3CC3)cc12 (single isomer, unassigned) [EP-0040358]: 2.8 µM
N#Cc1ccc2c(c1)CC[C@H](N1C[C@H]3COC[C@H]3C1)[C@H]2Nc1ncnc2[nH]c(C(F)(F)F)cc12: 8.3 µM
CN1CCN(C2COc3ccccc3C2Nc2ncnc3[nH]c(C4CC4)cc23)CC1=O (racemic): 25.0 µM

*Q* Send back HeLa MKYP cells Highest safe dose (cytotoxicity; no FO; safe means DAPI+ <20%) of OC(C1CCOCC1)C1COc2ccccc2C1Nc1ncnc2[nH]c(C(F)(F)F)cc12 (single isomer, unassigned) [EP-0041269] only.
*A* 25.0 µM

*Q* Send back HeLa MKYP cells Highest safe dose (cytotoxicity; no FO; safe means DAPI+ <20%) of c1ccc2c(c1)CC[C@H](C1CCOCC1)[C@@H]2Nc1ncnc2[nH]c(C3CC3)cc12 only.
*A* 25.0 µM

*Q* Send back HeLa MKYP cells Highest safe dose (cytotoxicity; no FO; safe means DAPI+ <20%) of c1ccc2c(c1)OC[C@@H](C1CCOCC1)[C@H]2Nc1ncnc2[nH]c(C3CC3)cc12 only.
*A* 25.0 µM

---

As shown below, each of these compounds has a reported visual inspection of crystallization value.
protocol_details: Inspection of crystallization and round cells
Format: physicochemical
Set-up: key: 1=yes crystals; 0=no crystals
measurement_setup: 0.9 μM compound
Respond using a number only.

# example entries with known answers
FC(F)(F)c1cc2c(N[C@H]3c4ccccc4CC[C@@H]3N3C[C@H]4COC[C@H]4C3)ncnc2[nH]1: 0
c1coc(CNc2ncnc3[nH]cnc23)c1 [Kinetin, kinetin, reference compound]: 0
FC(F)(F)c1cc2c(NC3CCCc4ccccc43)ncnc2[nH]1 (single isomer, unassigned): 0

*Q* State its visual inspection of crystallization: FC(F)(F)c1cc2c(N[C@H]3c4ccccc4CC[C@@H]3N3CC4(CCOCC4)C3)ncnc2[nH]1 (single isomer, unassigned)
*A* 0

---

Test system: HeLa MKYP cells
protocol_details: Cell death measured by DAPI staining, with 1 μM FCCP/oligomycin or no toxin (no FO)
Format: cell-based
measurement_setup: with 1 μM FO
metric_name: Max % death with 1 μM FO (%)
# output: bare number, implied unit %

FC1(F)CCN([C@H]2CCc3ccccc3[C@@H]2Nc2ncnc3[nH]c(C(F)(F)F)cc23)CC1 (single isomer, unassigned) [EP-0038393]: 17.6
c1ccc2c(c1)CC[C@H](N1C[C@H]3COC[C@H]3C1)[C@H]2Nc1ncnc2[nH]c(C3CC3)cc12 (single isomer, unassigned) [EP-0040248]: 3.7
COC1CN([C@H]2COc3ccccc3[C@@H]2Nc2ncnc3[nH]c(C4CC4)cc23)C1 [EP-0040847]: 5.2
CN(c1ncnc2[nH]c(C3CC3)cc12)C1c2ccccc2CCC1N1C[C@H]2COC[C@H]2C1 (stereo partly drawn) [EP-0039743]: 28.2
FC(F)(F)c1cc2c(N[C@H]3c4ccccc4OC[C@@H]3C3CCOCC3)ncnc2[nH]1 (single isomer, unassigned) [EP-0040699]: 3.7

*Q* Send back HeLa MKYP cells Max % death with 1 μM FO of C[C@@H]1CN([C@H]2COc3cc(F)ccc3[C@@H]2Nc2ncnc3[nH]c(C4CC4)cc23)CCO1 [EP-0041122] only.
*A* 16.9

*Q* Send back HeLa MKYP cells Max % death with 1 μM FO of C[C@@H]1CN([C@H]2COc3ccccc3[C@@H]2Nc2ncnc3[nH]c(C4CC4)cc23)CCO1 [EP-0040957] only.
*A* 3.8

*Q* Send back HeLa MKYP cells Max % death with 1 μM FO of c1ccc2c(c1)OC[C@@H](C1CCOCC1)[C@@H]2Nc1ncnc2[nH]c(C3CC3)cc12 [EP-0040729] only.
*A* 17.1

*Q* Send back HeLa MKYP cells Max % death with 1 μM FO of C[C@H]1CN([C@@H]2COc3cc(F)ccc3[C@H]2Nc2ncnc3[nH]c(C(F)(F)F)cc23)CCO1 [EP-0040982] only.
*A* 6.1

*Q* Send back HeLa MKYP cells Max % death with 1 μM FO of FC(F)OC1CN([C@H]2COc3ccccc3[C@@H]2Nc2ncnc3[nH]c(C(F)(F)F)cc23)C1 (racemic) [EP-0041542] only.
*A* 3.8

*Q* Send back HeLa MKYP cells Max % death with 1 μM FO of Fc1cccc2c1CC[C@@H](N1C[C@H]3COC[C@H]3C1)[C@@H]2Nc1ncnc2[nH]c(C(F)(F)F)cc12 (single isomer, unassigned) [EP-0040506] only.
*A* 41.0

*Q* Send back HeLa MKYP cells Max % death with 1 μM FO of c1ccc2c(c1)CC[C@@H](C1CCOCC1)[C@@H]2Nc1ncnc2[nH]c(C3CC3)cc12 [EP-0040727] only.
*A* 7.7

*Q* Send back HeLa MKYP cells Max % death with 1 μM FO of COC1CCN([C@H]2CCc3ccccc3[C@@H]2Nc2ncnc3[nH]c(C(F)(F)F)cc23)CC1 [EP-0038282] only.
*A* 97.5

*Q* Send back HeLa MKYP cells Max % death with 1 μM FO of C[C@@H]1CN([C@H]2CCc3ccccc3[C@@H]2Nc2ncnc3[nH]c(C4CC4)cc23)C[C@H](C)O1 (single isomer, unassigned) [EP-0040498] only.
*A* 16.5

*Q* Send back HeLa MKYP cells Max % death with 1 μM FO of FC(F)(F)c1cc2c(N[C@H]3c4ccccc4CC[C@@H]3N3C[C@H]4COC[C@H]4C3)ncnc2[nH]1 [EP-0038461] only.
*A* 9.7

*Q* Send back HeLa MKYP cells Max % death with 1 μM FO of Fc1ccc2c(c1)CC[C@H](N1C[C@@H]3COC[C@H]3C1)[C@H]2Nc1ncnc2[nH]c(C3CC3)cc12 [EP-0040669] only.
*A* 29.9

*Q* Send back HeLa MKYP cells Max % death with 1 μM FO of C[C@@H]1COCCN1[C@H]1CCc2ccccc2[C@@H]1Nc1ncnc2[nH]c(C3CC3)cc12 (single isomer, unassigned) [EP-0040339] only.
*A* 16.5

*Q* Send back HeLa MKYP cells Max % death with 1 μM FO of N#Cc1ccc2c(c1)CC[C@H](N1C[C@H]3COC[C@H]3C1)[C@H]2Nc1ncnc2[nH]c(C(F)(F)F)cc12 [EP-0040120] only.
*A* 93.5

*Q* Send back HeLa MKYP cells Max % death with 1 μM FO of FC(F)(F)c1cc2c(N[C@H]3c4ccccc4OC[C@@H]3N3C[C@H]4COC[C@H]4C3)ncnc2[nH]1 [EP-0040138] only.
*A* 9.4

*Q* Send back HeLa MKYP cells Max % death with 1 μM FO of CN1CCN([C@@H]2CCc3ccccc3[C@H]2Nc2ncnc3[nH]c(C(F)(F)F)cc23)CC1 (single isomer, unassigned) [EP-0040579] only.
*A* 20.3

*Q* Send back HeLa MKYP cells Max % death with 1 μM FO of CC1(O)CN([C@@H]2COc3ccccc3[C@H]2Nc2ncnc3[nH]c(C(F)(F)F)cc23)C1 (single isomer, unassigned) [EP-0041264] only.
*A* 2.5
